The following compounds are shown together with reported pKd values.
target: UniProt:P01116; experiment: Binding to KRAS by surface plasmon resonance (SPR), Single Cycle Kinetics; conditions: SPR, Single Cycle Kinetics; GDP-bound KRAS wild-type protein
pKd: −log10 of the molar value.
attribute.measured: pKd

query.smiles: CCCOC[C@H]1C(=O)N[C@@H]([C@@H](C)CC)C(=O)N(C)CC(=O)N(C)[C@H]2C/C=C\CCN(C2=O)[C@@H](Cc2ccc(C(F)(F)F)cc2)C(=O)N(C)CC(=O)N[C@@H](CCc2cc(F)c(C(F)(F)F)c(F)c2)C(=O)N2C[C@H](OCC)C[C@H]2C(=O)NC2(CC(C)(C)C2)C(=O)N(C)[C@@H](C2CCCC2)C(=O)N(C)[C@H](C(=O)N(C)C)CC(=O)N1C
subject.of.test: UniProt:P01116
value: 10.49
//
query.smiles: CCO[C@@H]1C[C@H]2C(=O)NC3(CCC3)C(=O)N(C)[C@@H](C3CCCC3)C(=O)N(C)[C@H](C(=O)N(C)C)CC(=O)N(C)[C@@H](CC)C(=O)N[C@@H]([C@@H](C)CC)C(=O)N(C)CC(=O)N(C)[C@H]3C/C=C\CCN(C3=O)[C@@H](CC3CCCCC3)C(=O)N(C)CC(=O)N[C@@H](CCc3cc(F)c(C(F)(F)F)c(F)c3)C(=O)N2C1
subject.of.test: UniProt:P01116
value: 9.85
